system: EKVX; assay: NCI tumour cell line growth inhibition, 48 h
The source made the active and inactive calls. Rule as the data show it: active = GI50 up to about 1.1 µM and inactive = higher.
Outcomes: active, inactive

# molecule, target.or.test.system, label
measured = [
    ("N=C(N)NS(=O)(=O)c1ccc(NC(=O)c2cccc3c(O)c4ccccc4nc23)cc1", "EKVX", "inactive"),
    ("COc1ccc(/C=C2\\N=C(c3ccccc3)OC2=O)c(OCc2ccccc2)c1", "EKVX", "inactive"),
    ("Cc1nc(=O)n2c(C)n[nH]c2c1C(=O)O", "EKVX", "inactive"),
    ("COc1cc([N+](=O)[O-])c(S(=O)(=O)O)cc1-n1nc(-c2ccccc2)n[n+]1-c1cc(S(=O)(=O)[O-])c([N+](=O)[O-])cc1OC", "EKVX", "inactive"),
    ("CC1=C(c2ccccc2)NC(=S)C(C)C(c2ccccc2)=N1 (configuration not stated)", "EKVX", "inactive"),
    ("Cc1cn(CC2=NCC(O)CN2)c(=O)[nH]c1=O (configuration not stated)", "EKVX", "inactive"),
    ("CC1(O)CCC(C(C)(C)O)CC1 (configuration not stated) [TERPIN]", "EKVX", "active"),
    ("CC1=C(C)CC2(CCCCC2=O)[S+]([O-])C1 (configuration not stated)", "EKVX", "inactive"),
    ("C[C@]12CC[C@H]3[C@@H](CC[C@]4(O)C[C@@H](O)CC[C@]34/C=N/O)[C@@]1(O)CC[C@@H]2C1=COC(=O)C1", "EKVX", "active"),
    ("O=C(C/C(=N\\NC(=O)C[n+]1ccccc1)C(=O)Nc1nc2ccc([N+](=O)[O-])cc2s1)CC(c1ccccc1)c1c(O)c2ccccc2oc1=O (configuration not stated)", "EKVX", "inactive"),
    ("O=C(Cc1nc2ccccc2o1)C(=O)Nc1cccc(Cl)c1", "EKVX", "inactive"),
    ("O=C(c1ccccc1)c1c(C(F)(F)F)[n+]([O-])c2cc(Cl)c(Cl)cc2[n+]1[O-]", "EKVX", "inactive"),
]
